Cited source: ChEMBL document CHEMBL5131546

# Procedure Text: AUCinf in CD-1 mouse at 0.5 mg/kg, iv by LC-MS/MS analysis
# Type: ADME, organism-based
# Parameters: time infinity, dose 0.5 mg/kg, route iv
# Cond: in vivo
Assay Metric: AUC(0-inf) (µM·h)

                                smiles_repr  measured
0  Cc1[nH]nc(-c2ccncc2)c1-c1ccc(-c2cccc(S(N)(=O)=O)c2)c(C2CC2)c1      0.58

###

# Procedure Text: Clearance in CD-1 mouse at 0.5 mg/kg, iv by LC-MS/MS analysis
# Assay type: ADME, organism-based
# Cond: in vivo
Assay Metric: clearance (mL/min/kg)

In [3]: df
Out[3]:
                                smiles_repr  units_of_measure  measured
0  Cc1[nH]nc(-c2ccncc2)c1-c1ccc(-c2cccc(S(N)(=O)=O)c2)c(C2CC2)c1         mL/min/kg      33.5
